- study-target: Telomerase reverse transcriptase (Homo sapiens)
- assay-name: Inhibitory activity against telomerase extracted from HCT 116 cell lines
A collection of molecules and their measured IC50
Respond numerically; units are µM and should not be typed.

Past entries and their recorded results:
molecule=CC(C)(C)OC(=O)N[C@@H](Cc1cc2ccccc2[nH]1)C(=O)N[C@@H](Cc1c[nH]c2ccccc12)C(=O)NCCCCCCCCCCCCOP(=O)(O)Oc1ccccc1Cl recorded_value=0.3
molecule="Cc1cn(CCCn2cc(CC(=O)NCCCC(=O)N3CCCC3C(=O)NCCCCCCOP(=O)(O)Oc3ccccc3Cl)c3ccccc32)c2ccccc12 (configuration not stated)" recorded_value=46.9
molecule=Cc1cn(CCCn2cc(CC(=O)NCCCCCCOP(=O)(O)Oc3ccccc3Cl)c3ccccc32)c2ccccc12 recorded_value=29.4

Ask: Look at this molecule and give its reported IC50. CC(=O)N[C@H](Cc1cc2ccccc2[nH]1)C(=O)N[C@H](Cc1c[nH]c2ccccc12)C(=O)NCCCCCCCCCCCCOP(=O)(O)Oc1ccccc1Cl
Reply: 22.9

###

A collection of molecules and their measured IC50
- study-target: Telomerase reverse transcriptase (Homo sapiens, UniProt O14746)
- Sequence (O14746 whole entry): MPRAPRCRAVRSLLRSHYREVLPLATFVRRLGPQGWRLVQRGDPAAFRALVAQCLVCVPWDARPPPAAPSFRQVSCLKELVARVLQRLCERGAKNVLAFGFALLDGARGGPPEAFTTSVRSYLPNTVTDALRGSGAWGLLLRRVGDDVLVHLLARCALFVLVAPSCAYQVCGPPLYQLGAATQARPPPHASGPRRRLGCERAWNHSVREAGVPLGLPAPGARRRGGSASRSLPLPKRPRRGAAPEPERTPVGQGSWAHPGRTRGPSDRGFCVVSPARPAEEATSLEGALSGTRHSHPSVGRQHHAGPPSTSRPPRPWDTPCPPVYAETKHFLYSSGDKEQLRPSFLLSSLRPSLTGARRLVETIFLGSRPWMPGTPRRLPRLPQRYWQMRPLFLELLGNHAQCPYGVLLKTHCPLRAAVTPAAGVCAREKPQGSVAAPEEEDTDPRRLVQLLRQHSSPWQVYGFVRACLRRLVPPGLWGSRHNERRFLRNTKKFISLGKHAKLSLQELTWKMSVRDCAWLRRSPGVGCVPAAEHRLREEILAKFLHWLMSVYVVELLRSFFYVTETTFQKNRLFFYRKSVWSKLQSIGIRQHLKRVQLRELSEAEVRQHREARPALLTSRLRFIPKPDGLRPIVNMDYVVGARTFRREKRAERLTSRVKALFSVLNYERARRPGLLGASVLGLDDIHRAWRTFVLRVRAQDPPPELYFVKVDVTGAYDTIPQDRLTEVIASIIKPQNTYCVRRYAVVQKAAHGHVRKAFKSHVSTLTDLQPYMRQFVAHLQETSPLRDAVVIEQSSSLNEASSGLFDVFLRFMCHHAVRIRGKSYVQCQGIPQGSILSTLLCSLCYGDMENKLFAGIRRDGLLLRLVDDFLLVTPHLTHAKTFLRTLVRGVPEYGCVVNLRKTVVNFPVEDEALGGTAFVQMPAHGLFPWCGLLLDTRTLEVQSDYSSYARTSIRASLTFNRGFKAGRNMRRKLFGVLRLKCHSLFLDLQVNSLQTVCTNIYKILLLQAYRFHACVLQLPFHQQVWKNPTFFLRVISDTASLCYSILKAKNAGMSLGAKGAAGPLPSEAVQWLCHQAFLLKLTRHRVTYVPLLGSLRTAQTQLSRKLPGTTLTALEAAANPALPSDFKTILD
- assay-name: Inhibitory activity against telomerase extracted from HCT 116 cell lines

molecule="N[C@H](Cc1cc2ccccc2[nH]1)C(=O)N[C@@H](Cc1c[nH]c2ccccc12)C(=O)NCCCCCCCCCCCCOP(=O)(O)Oc1ccccc1Cl (mixture of isomers)" recorded_value="10.6 µM"
molecule=O=C(CCCc1c[nH]c2ccccc12)NCCCCCCCCCCCCOP(=O)(O)Oc1ccccc1Cl recorded_value="29.7 µM"
molecule=CC(C)(C)OC(=O)N[C@@H](Cc1ccccc1)C(=O)N[C@H](Cc1c[nH]c2ccccc12)C(=O)NCCCCCCCCCCCCOP(=O)(O)Oc1ccccc1Cl recorded_value="> 100 µM"
molecule="CC(C)(C)OC(=O)N[C@@H](Cc1cc2ccccc2[nH]1)C(=O)N[C@H](Cc1c[nH]c2ccccc12)C(=O)NCCCCCCCCCCCCOP(=O)(O)Oc1ccccc1Cl (mixture of isomers)" recorded_value="> 100 µM"
molecule=N[C@H](Cc1cc2ccccc2[nH]1)C(=O)N[C@H](Cc1c[nH]c2ccccc12)C(=O)NCCCC(=O)NCC(=O)NCCCCCCOP(=O)(O)Oc1ccccc1Cl recorded_value="> 100 µM"

Lab note: next molecule to report on.
Ask: Look at this molecule and give its reported IC50. CC(C)(C)OC(=O)N[C@H](Cc1c[nH]c2ccccc12)C(=O)NCCCCCCOP(=O)(O)Oc1ccccc1Cl
Reply: > 100 µM

###

- study-target: Telomerase reverse transcriptase (Homo sapiens, UniProt O14746)
- assay-name: Inhibitory activity against telomerase extracted from HCT 116 cell lines
pIC50: −log10 of the molar value.
# pIC50 >= 5 gives Criterion met, anything below gives Criterion not met

Please review the following examples before continuing.
compound=CC(C)(C)OC(=O)N[C@H](CCC(=O)O)C(=O)N[C@H](Cc1c[nH]c2ccccc12)C(=O)NCCCCCCCCCCCCOP(=O)(O)Oc1ccccc1Cl category_label="Criterion not met"
compound="N[C@H](Cc1cc2ccccc2[nH]1)C(=O)N[C@@H](Cc1c[nH]c2ccccc12)C(=O)NCCCC(=O)NCC(=O)NCCCCCCOP(=O)(O)Oc1ccccc1Cl (racemic)" category_label="Criterion not met"
compound=Cc1cn(CCCn2cc(CC(=O)NCCCCCCCCCCCCOP(=O)(O)Oc3ccccc3Cl)c3ccccc32)c2ccccc12 category_label="Criterion met"
compound=Cc1cn(CCCn2cc(CC(=O)NCCCC(=O)NCC(=O)NCCCCCCOP(=O)(O)Oc3ccccc3Cl)c3ccccc32)c2ccccc12 category_label="Criterion not met"

Ask: Textbook exercise: given the entry N[C@H](Cc1c[nH]c2ccccc12)C(=O)NCCCCCCCCCCCCOP(=O)(O)Oc1ccccc1Cl , state whether its pIC50 is greater than or equal to 5.
Reply: Criterion not met

Ask: Textbook exercise: given the entry O=C(N[C@H](Cc1c[nH]c2ccccc12)C(=O)NCCCCCCCCCCCCOP(=O)(O)Oc1ccccc1Cl)[C@H]1CCCN1 , state whether its pIC50 is greater than or equal to 5.
Reply: Criterion not met

Ask: Textbook exercise: given the entry O=C(Cc1c[nH]c2ccccc12)NCCCCCCCCCCCCOP(=O)(O)Oc1ccccc1Cl , state whether its pIC50 is greater than or equal to 5.
Reply: Criterion not met

Ask: Textbook exercise: given the entry N[C@@H](Cc1c[nH]c2ccccc12)C(=O)NCCCCCCCCCCCCOP(=O)(O)Oc1ccccc1Cl , state whether its pIC50 is greater than or equal to 5.
Reply: Criterion not met

Ask: Textbook exercise: given the entry CC(C)(C)OC(=O)N[C@H](Cc1cc2ccccc2[nH]1)C(=O)N[C@@H](Cc1c[nH]c2ccccc12)C(=O)NCCCC(=O)NCC(=O)NCCCCCCOP(=O)(O)Oc1ccccc1Cl (mixture of isomers) , state whether its pIC50 is greater than or equal to 5.
Reply: Criterion not met

Ask: Textbook exercise: given the entry O=C(N[C@H](Cc1ccccc1)C(=O)NCCCCCCCCCCCCOP(=O)(O)Oc1ccccc1Cl)OCc1ccccc1 , state whether its pIC50 is greater than or equal to 5.
Reply: Criterion not met

Ask: Textbook exercise: given the entry O=C(N[C@H](Cc1c[nH]c2ccccc12)C(=O)NCCCCCCCCCCCCOP(=O)(O)Oc1ccccc1Cl)OCc1ccccc1 , state whether its pIC50 is greater than or equal to 5.
Reply: Criterion met

Ask: Textbook exercise: given the entry N[C@H](Cc1ccccc1)C(=O)N[C@H](Cc1c[nH]c2ccccc12)C(=O)NCCCCCCCCCCCCOP(=O)(O)Oc1ccccc1Cl , state whether its pIC50 is greater than or equal to 5.
Reply: Criterion not met

Ask: Textbook exercise: given the entry CC(C)(C)OC(=O)N[C@H](Cc1c[nH]c2ccccc12)C(=O)NCCCCCCCCCCCCOP(=O)(O)Oc1ccccc1Cl , state whether its pIC50 is greater than or equal to 5.
Reply: Criterion not met

Ask: Textbook exercise: given the entry N[C@@H](Cc1cc2ccccc2[nH]1)C(=O)N[C@@H](Cc1c[nH]c2ccccc12)C(=O)NCCCC(=O)NCC(=O)NCCCCCCOP(=O)(O)Oc1ccccc1Cl , state whether its pIC50 is greater than or equal to 5.
Reply: Criterion not met
